test: Cell Viability - H-4-II-E (AID 543); details: H-4-II-E rat hepatoma viability; series mostly up to 92.2 µM;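 further: cells exposed to compound for 40 hours; nearly all actives have a fitted effect of over 35% in size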
Inconclusive results are not listed. The source made the active and inactive calls. The call rests on the fitted dose curve; in most records, active means well fitted cell-killing curve with a large enough effect; inconclusive means small, poorly fitted or top-dose-only effect; inactive means flat fitted curve, though single readings scatter.
The categories you may choose from are True = active, False = inactive

c1ccc(N=NNc2ccccc2)cc1
False
S=C1NCCN1
False
Nc1cc(Cl)cc(C(=O)O)c1Cl
False
CC(=O)CCC(C)=O
False
Cl/C=C\Cl
False

QUERY: State the result this test recorded for `FC(Cl)(Cl)Cl` .
RESULT: False

QUERY: State the result this test recorded for `CCCCNC(=O)n1c(NC(=O)OC)nc2ccccc21` .
RESULT: True

QUERY: State the result this test recorded for `N#CC(Cl)(Cl)Cl` .
RESULT: False

----------
assay: Cell Viability - Renal Proximal Tubule (AID 545); settings: renal proximal tubule cells viability; series mostly up to 91.7 µM;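 further: cells exposed to compound for 40 hours; nearly all actives have a fitted effect of over 40% in size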
Inconclusive results are not listed. Calls of active or inactive are those of the source. Calls come from the whole dose curve; as a rule, active = well fitted cell-killing curve with a large enough effect; inconclusive = small, poorly fitted or top-dose-only effect; inactive = flat fitted curve, though single readings scatter.
Metric Name: outcome

Nc1ccc(Cl)c(Cl)c1
inactive
Nc1ccc(Oc2ccc(N)cc2)cc1
inactive
Cc1ccc(N)cc1Cl
inactive
Clc1ccc(C(Cl)(Cl)Cl)c(Cl)c1
inactive
CC(C)(COCC1CO1)COCC1CO1 (stereo not drawn)
inactive

QUERY: Looking for the measured outcome of `Cc1ccc2c(C)cccc2c1` , can you help?
RESULT: inactive

QUERY: Looking for the measured outcome of `N#CC(Br)Br` , can you help?
RESULT: inactive

QUERY: Looking for the measured outcome of `Brc1cccc(-c2ccccc2)c1` , can you help?
RESULT: inactive

----------
Examples of molecules with documented caspase-3 activation follow.
assay: Cellular Toxicity (caspase-3) Hek293 (AID 664); conditions: HEK293 caspase-3 activation, DMSO = 0%, 100 µM tamoxifen = 100%; at 92.2 µM (top of the series);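 further: cells exposed to compound for 16 h at 37 °C before readout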
Records with an inconclusive call do not appear.
Note: unit % is implicit; provide only the numeric part.

Look over these answered cases.
CN(C)c1ccc(N=Nc2ccccc2)cc1
-8.79
CC(C)(Cl)Cl
0.825
C=CC(=O)OCCN(C)C
-0.126

QUERY: Looking for the measured caspase-3 activation of `Oc1cc(Cl)ccc1Cl` , can you help?
RESULT: -1.46

QUERY: Looking for the measured caspase-3 activation of `O=Cc1ccc(Cl)cc1Cl` , can you help?
RESULT: -1.13

QUERY: Looking for the measured caspase-3 activation of `CCCBr` , can you help?
RESULT: 2.6

----------
test: Cellular Toxicity (caspase-3) Renal Proximal Tubule (AID 667); settings: renal proximal tubule cells; series mostly up to 91.7 µM;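 further: cells exposed to compound for 16 hours at 37 °C before detection; 0% = DMSO basal and 100% = 10 µM staurosporine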
Active and inactive are the calls of the source. Calls follow the shape of the dose curve; as a rule, active = well fitted activation curve with a large enough effect; inconclusive = small, poorly fitted or top-dose-only effect, or effect the other way; inactive = flat fitted curve, though single readings scatter.
Metric Name: outcome

Look over these answered cases.
Cc1coc2c1CCC(C)C2 (stereo not given)
inactive
O=[N+]([O-])c1cccc(CCl)c1
inactive
Cc1ccccc1[N+](=O)[O-]
inactive
Clc1ccc(C(Cl)(Cl)Cl)c(Cl)c1
inactive
C=C(C)CCl
inactive

QUERY: Looking for the measured outcome of `OC[P+](CO)(CO)CO` , can you help?
RESULT: inactive

QUERY: Looking for the measured outcome of `Oc1cc(Cl)cc(Cl)c1` , can you help?
RESULT: inactive

----------
Examples of molecules with documented activity change, negative = inhibition follow.
assay: NFAT Signaling Pathway (AID 444); details: Jurkat NFAT-bla M1, carbachol, beta-lactamase ratio, 5 h; at 7.69 µM (top of the series) unless noted;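 further: carbachol stimulus at about its EC50 of 1 µM final; on the % scale 0 is the no-effect control and ±100 the full control effect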
Results filed as inconclusive are left out.
Note: unit % is implicit; provide only the numeric part.

Look over these answered cases.
CC(C)[C@@H](Br)C(=O)NCC(=O)O
0.167
COc1cccc2c1C(=O)c1c(O)c3c(c(O)c1C2=O)C[C@](O)(/C(C)=N\O)C[C@@H]3O[C@H]1C[C@H](N)[C@@H](O)[C@H](C)O1
-24.2
O=P(O)(O)c1ccccc1 (tested in a mixture with another compound)
5.01
O=P(O)(OP(=O)(O)c1ccccc1)c1ccccc1 (tested in a mixture with another compound)
-3.07
C(=NCCN1CCOCC1)=NC1CCCCC1
12.1

QUERY: Looking for the measured activity change, negative = inhibition of `COC(=O)[C@H]1C(=O)[C@H](C(=O)OC)[C@@H]2CC[C@H]1N2C` , can you help?
RESULT: 11.3

QUERY: Looking for the measured activity change, negative = inhibition of `NNc1nncn1N` , can you help?
RESULT: 5.16

QUERY: Looking for the measured activity change, negative = inhibition of `COc1cc(CCN)c(OC)c(OC)c1` , can you help?
RESULT: -9.45

QUERY: Looking for the measured activity change, negative = inhibition of O=S(=O)(O)/C(=C\c1ccccc1)c1ccccc1 (tested in a mixture with another compound) , can you help?
RESULT: 11.5

QUERY: Looking for the measured activity change, negative = inhibition of `CC[C@@](O)(C(=O)O)c1cc2n(c(=O)c1CO)Cc1cc3ccccc3nc1-2` , can you help?
RESULT: -9.59

QUERY: Looking for the measured activity change, negative = inhibition of `O=C(O)CSCC(=O)O` , can you help?
RESULT: 2.38
